The measurements presented in this section are drawn from paper PMC11267923.

molecular target: SusD38489 (SusD38489Δ1–25); construct: Sec/SPII signal peptide 1-25 removed; C-terminal His6 from pET21a(+); assay: SPR, Biacore T200, His-captured protein, single-cycle kinetics, […] fit; conditions: 25 °C; 0.1 M potassium phosphate pH 7 reference buffer; one binding site
Assay readout: Kd (nM)

> print(dat)
                                   molecule  units.label  measured.value
1  O=C(OCCO)c1ccc(C(=O)OCCO)cc1 [BHET, Bis(2-Hydroxyethyl) terephthalate]           nM              10

* * *

molecular target: SusD1 (SusD1Δ1–22) (Prevotella sp. Sc00044, UniProt W5QTG3)
Sequence (W5QTG3 23-580 limits assumed, stated change not applied): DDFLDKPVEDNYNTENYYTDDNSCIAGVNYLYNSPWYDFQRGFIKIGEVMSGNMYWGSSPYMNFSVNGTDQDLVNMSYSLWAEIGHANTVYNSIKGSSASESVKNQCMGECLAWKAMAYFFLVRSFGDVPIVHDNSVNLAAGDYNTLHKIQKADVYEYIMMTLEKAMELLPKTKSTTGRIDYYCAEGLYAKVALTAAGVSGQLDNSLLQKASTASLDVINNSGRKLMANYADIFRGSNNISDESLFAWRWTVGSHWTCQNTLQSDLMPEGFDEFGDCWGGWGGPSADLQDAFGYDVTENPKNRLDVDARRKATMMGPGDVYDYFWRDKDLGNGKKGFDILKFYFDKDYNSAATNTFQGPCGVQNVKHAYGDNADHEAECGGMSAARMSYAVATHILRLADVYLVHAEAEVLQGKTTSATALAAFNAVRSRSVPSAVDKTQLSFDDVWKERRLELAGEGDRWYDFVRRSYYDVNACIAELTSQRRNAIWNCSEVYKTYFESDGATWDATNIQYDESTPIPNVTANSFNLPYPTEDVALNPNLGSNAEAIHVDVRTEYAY
Assay readout: Kd

> print(dat)
                                   compound  measured.value
1  O=C(OCCO)c1ccc(C(=O)OCCO)cc1 [BHET, Bis(2-Hydroxyethyl) terephthalate]          0.3 nM
